Tested on: HCT-116 colon
PROTOCOL: NCI tumour cell line growth inhibition, 48 h; in the data active means GI50 below about 0.43 µM; inactive means the rest
Return exactly one item of true (1) = active, false (0) = inactive

Before answering, review these 5 worked examples.
O=C(c1ccco1)c1c(C(F)(F)F)n([O-])c2cc(F)c(F)cc2[n+]1=O	true (1)
COc1ccc(-c2c3c(N)c4c(nc3nc3c2c(C)nn3-c2ccccc2)CCCC4)cc1	false (0)
CC(=O)[CH-]C(C)=O.CC(=O)[CH-]C(C)=O.CC(=O)[CH-]C(C)=O.[Ga+3]	false (0)
C=C1C(=O)O[C@H]2[C@H]1CC/C(COC(=O)NCc1c[nH]c3ccc(F)cc13)=C\CC[C@@]1(C)O[C@@H]21	false (0)
COCCOCCOCCOCCOC(=O)OC[n+]1ccc(NC(=NCCCCCCOc2ccc(Cl)cc2)NC#N)cc1	true (1)

What outcome does the record of this test show for CCN(Cc1ccc(F)cc1)c1ccc(CO)c(C(F)(F)F)c1 ? false (0)

What outcome does the record of this test show for C=CC[N+]1(CC)CCN=C1CCCCCCCCCCCCCCCCC (stereo unspecified) ? true (1)

What outcome does the record of this test show for COc1ccc2c(c1)C(=O)c1c-2c(=O)n(CCCN(C)C)c2cc(OC)c(OC)cc12 ? false (0)

What outcome does the record of this test show for c1ccc(C2CCCCC2)c(OCCCCCN2CCNCC2)c1 ? false (0)

What outcome does the record of this test show for N#Cc1cc2c(cc1Cl)Sc1nnc(Nc3cccc4ccccc34)n1S2(=O)=O ? false (0)

What outcome does the record of this test show for COC1=C(OC)[C@]2(OC)c3c(O)c(OC)c4c(c3O[C@@]23O[C@@H](c2ccccc2)CC=C3C1=O)[C@@H](OC)C[C@H](c1ccccc1)O4 ? true (1)

====

System: HOP-92 NSCLC
PROTOCOL: NCI tumour cell line growth inhibition, 48 h; in the data active = GI50 below about 0.43 µM; inactive = the rest
Return exactly one item of active, inactive

N#C/C(=C\c1cc2ccc(N3CCC3)cc2oc1=O)C(=O)N(CC(=O)O)CC(=O)O	inactive

What outcome does the record of this test show for O=c1[nH]c2ccccc2n1C1CCN(CCCC(c2ccc(F)cc2)c2ccc(F)cc2)CC1 ? active

What outcome does the record of this test show for C=C1C(=O)O[C@H]2[C@H]1CC/C(COC(=O)NCc1c[nH]c3ccc(F)cc13)=C\CC[C@@]1(C)O[C@@H]21 ? inactive

====

Test system: SNB-19 CNS
PROTOCOL: NCI tumour cell line growth inhibition, 48 h
READOUT: TGI

// known answers, use as guide
CN(C)c1nc(N)c(C#N)c(C#N)c1C#N	> 10 µM
O=[N+]([O-])/C=C/c1ccc(Cl)cc1Cl	32.4 µM
O=C(O)CC12CC3CC(CC(O)(C3)C1)C2	> 100 µM
COC1=C(OC)[C@]2(OC)c3c(O)c(OC)c4c(c3O[C@@]23O[C@@H](c2ccccc2)CC=C3C1=O)[C@@H](OC)C[C@H](c1ccccc1)O4	3.51 µM
Cc1cn(C2CC(O)C(Cn3nncc3Cn3ncc(=O)[nH]c3=O)O2)c(=O)[nH]c1=O (centres undefined)	> 100 µM

TGI for COc1cc2c(cc1NC(=O)C(Cl)Cl)-c1ccc(NC(=O)C(Cl)Cl)cc1C2 ? 2.06 µM

TGI for Cc1nnc(N/N=C(/C(=O)C(C#N)c2ccc(Cl)cc2)C(C#N)c2ccc(Cl)cc2)n1N (centres undefined) ? 27.9 µM

TGI for CN(C)CC(/C(Cc1ccccc1)=N\NC(=S)NN)c1ccccc1 (centres undefined) ? > 100 µM

TGI for CN(C)CCCn1c2c(c3cc4c(cc3c1=O)OCO4)C(=O)c1ccccc1-2 ? > 100 µM

TGI for O=c1n(-c2ccccc2)c(=O)n2c(-c3ccccc3)c(-c3ccccc3)n12 ? > 100 µM

TGI for C[C@H]1C(=O)c2c(cc(O)c(C3OC(CO)C(O)C(O)C3O)c2O)OC1c1ccc(O)c(O)c1 (some centres undefined) ? > 100 µM

TGI for C=C1C2CCC3(CCC4C5(C)CCCC4(C=[N+](CCO)C5)C3C2)C1O (centres undefined) ? > 100 µM

TGI for CC1CCC2C(CN(CC3=C(C(F)(F)F)OC4OC5(C)CCC6C(C)CCC3C46OO5)CC3=C(C(F)(F)F)OC4OC5(C)CCC6C(C)CCC3C46OO5)=C(C(F)(F)F)OC3OC4(C)CCC1C32OO4 (centres undefined) ? > 100 µM

TGI for CCC(C)N1CN(c2ccccc2)C2(CCN(CCCSc3ccc(F)cc3)CC2)C1=O (centres undefined) ? 19.7 µM

TGI for O/N=C1/CCCc2nonc21 ? > 100 µM
